I'd be grateful if you could share measured inhibition at 10 µM for these entries.
molecular target: human platelet membranes (3H-imipramine receptor) (Homo sapiens); construct: Fresh human platelet concentrates (less than 48 hours old) were obtained from the New York Blood Center; tissue New York Blood Center; host or cells: human blood platelets, membranes; assay: 3H-imipramine binding to human platelet membranes
Sequence (P31645 whole entry): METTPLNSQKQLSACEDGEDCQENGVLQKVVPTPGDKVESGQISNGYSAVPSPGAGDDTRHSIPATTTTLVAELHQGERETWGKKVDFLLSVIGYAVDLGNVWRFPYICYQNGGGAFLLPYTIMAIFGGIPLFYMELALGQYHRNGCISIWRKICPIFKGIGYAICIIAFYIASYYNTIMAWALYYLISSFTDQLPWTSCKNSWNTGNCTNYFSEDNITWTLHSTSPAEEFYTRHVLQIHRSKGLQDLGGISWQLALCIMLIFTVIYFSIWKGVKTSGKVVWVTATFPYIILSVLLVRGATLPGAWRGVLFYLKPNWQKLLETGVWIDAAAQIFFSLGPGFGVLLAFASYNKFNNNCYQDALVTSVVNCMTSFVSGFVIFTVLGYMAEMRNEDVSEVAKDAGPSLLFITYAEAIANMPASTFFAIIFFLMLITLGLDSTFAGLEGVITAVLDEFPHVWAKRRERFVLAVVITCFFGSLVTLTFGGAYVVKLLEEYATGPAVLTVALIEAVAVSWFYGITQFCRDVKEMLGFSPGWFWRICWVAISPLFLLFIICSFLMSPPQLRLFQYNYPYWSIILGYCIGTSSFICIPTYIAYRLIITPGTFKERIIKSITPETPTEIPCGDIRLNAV
Structures can show the parent of a compound that is named as a salt.
Your answer is read as %, so omit the unit and give the number.

Problem: # lookup: inhibition at 10 µM of "N#Cc1cnn2c1N(C(=O)CN1CCN(Cc3ccc4c(c3)OCO4)CC1)CC=C2c1cccc(C(F)(F)F)c1"
Solution: 81

Problem: Given the molecule "COc1cccc(CN2CCN(CC(=O)N3CC=C(c4cccc(C(F)(F)F)c4)n4ncc(C#N)c43)CC2)c1" , what is its reported inhibition at 10 µM?
Solution: 78

Problem: I'd like to know its inhibition at 10 µM. The molecule in question is N#Cc1cnn2c1N(C(=O)CCN1CCN(Cc3ccc(Cl)cc3)CC1)CC=C2c1cccc(C(F)(F)F)c1 [Example 85, dihydrochloride]
Solution: 85

Problem: Look up inhibition at 10 µM: "CN(C)CCCN1CCN(CC(=O)N2CC=C(c3cccc(C(F)(F)F)c3)n3ncc(C#N)c32)CC1"
Solution: 89

Problem: Item under review: "N#Cc1cnn2c1N(C(=O)CN1CCN(Cc3ccc(Cl)cc3)CC1)CC=C2c1cccc(C(F)(F)F)c1" . Reported inhibition at 10 µM?
Solution: 84

###

system: mice (hypoxic environment); experiment: Hypoxic survival test; type: in vivo, mouse (Royal Hart); details: Mus musculus, ip, 5 min, 100 mg/kg, intraperitoneal, 10% oxygen, 5 minutes; read-out: % Survivors
Counter-ions that a name gives are not always drawn.
Quantity kind: responders at 100 mg/kg (%)
Response body: numeric value in %, unit text excluded.

Problem: What does the data say about its responders at 100 mg/kg? Entry: N#Cc1cnn2c1N(C(=O)CN1CCN(C(=O)Nc3ccc(F)cc3F)CC1)CC=C2c1cccc(C(F)(F)F)c1 [Example 107]
Solution: 20

Problem: Could you share which responders at 100 mg/kg value was measured for N#Cc1cnn2c1N(C(=O)CN1CCN(C(=O)Nc3ccc(Cl)c(C(F)(F)F)c3)CC1)CC=C2c1cccc(C(F)(F)F)c1 [Example 106] ?
Solution: 15

Problem: Quick check: responders at 100 mg/kg of N#Cc1cnn2c1N(C(=O)CN1CCN(C(=O)OCc3ccccc3)CC1)CC=C2c1cccc(C(F)(F)F)c1 [Example 158] ?
Solution: 55

Problem: Can you share its responders at 100 mg/kg? I mean this compound: CC1=C(c2ccc(Cl)cc2)n2ncc(C#N)c2N(C(=O)CN2CCN(Cc3ccccc3)CC2)C1 [Example 114, dihydrochloride]
Solution: 25

Problem: Which responders at 100 mg/kg is listed for N#Cc1cnn2c1N(C(=O)CN1CCN(C(c3ccc(F)cc3)c3ccc(F)cc3)CC1)CC=C2c1cccc(C(F)(F)F)c1 [Example 88, dihydrochloride] ?
Solution: 55

Problem: Fill in the blank: the reported responders at 100 mg/kg of N#Cc1cnn2c1N(C(=O)CN1CCN(C(=O)c3ccccc3)CC1)CC=C2c1cccc(C(F)(F)F)c1 [Example 68] is ____.
Solution: 95

Problem: Using the record for N#Cc1cnn2c1N(C(=O)CN1CCN(Cc3cccc(Cl)c3)CC1)CCC2c1cccc(C(F)(F)F)c1 (stereo not shown) [Example 53] , report its responders at 100 mg/kg.
Solution: 15

###

tested on: mice (hypoxic environment); assay: Hypoxic survival test; assay type: in vivo, mouse (Royal Hart); settings: Mus musculus, ip, 5 min, 100 mg/kg, intraperitoneal, 10% oxygen, 5 minutes; read-out: % Survivors
Counter-ions that a name gives are not always drawn.
Quantity kind: responders at 100 mg/kg

Problem: Quick one: responders at 100 mg/kg of "Cc1ccc(C)c(N2CCN(CC(=O)N3CC=C(c4cc(Cl)ccc4Cl)n4ncc(C#N)c43)CC2)c1" ?
Solution: 45%

Problem: Would you mind telling me what responders at 100 mg/kg value was observed for CC1=C(c2cccc(Cl)c2)n2ncc(C#N)c2N(C(=O)CN2CCN(Cc3cccc(C(F)(F)F)c3)CC2)C1 [sesquihydrochloride] ?
Solution: 35%

Problem: Suppose we examine the molecule "N#Cc1cnn2c1N(C(=O)CN1CCN(Cc3ccccc3)CC1)CC=C2c1ccc(Cl)cc1" ; what responders at 100 mg/kg value has been reported?
Solution: 82.5%

Problem: Look at this molecule and give its reported responders at 100 mg/kg. CC1=C(c2cccc(Cl)c2)n2ncc(C#N)c2N(C(=O)CN2CCN(Cc3ccccc3)CC2)C1 [Example 113, dihydrochloride]
Solution: 30%

Problem: Form field: reported responders at 100 mg/kg of "CC1=C(c2cccc(C(F)(F)F)c2)n2ncc(C#N)c2N(C(=O)CN2CCN(Cc3cccc(C(F)(F)F)c3)CC2)C1"
Solution: 40%

Problem: Give the measured responders at 100 mg/kg of N#Cc1cnn2c1N(C(=O)CN1CCN(Cc3ccccc3)CC1)CCC2c1cccc(C(F)(F)F)c1 (stereo not shown) .
Solution: 80%

Problem: Give the measured responders at 100 mg/kg of "N#Cc1cnn2c1N(C(=O)CN1CCN(c3ccccc3)CC1)CC=C2c1cc(Cl)ccc1Cl" .
Solution: 70%

Problem: So what's the measured responders at 100 mg/kg for this one? CC1=C(c2cccc(Cl)c2)n2ncc(C#N)c2N(C(=O)CN2CCN(Cc3cccc(Cl)c3)CC2)C1 [Example 131, dihydrochloride]
Solution: 77%

Problem: Record request: responders at 100 mg/kg value, item "CCC1=C(c2cccc(C(F)(F)F)c2)n2ncc(C#N)c2N(C(=O)CN2CCN(Cc3ccccc3)CC2)C1"
Solution: 25%

Problem: Quick one: responders at 100 mg/kg of "N#Cc1cnn2c1N(C(=O)CN1CCN(Cc3ccccc3F)CC1)CC=C2c1cccc(C(F)(F)F)c1" ?
Solution: 55%

###

System: Brain-Specific Receptors of Rats (3H-benzodiazepine binding)
Test: Inhibition of the binding of 3H-benzodiazepine to brain-specific receptors of rats
Parameters: species or system rat (Wistar strain, whole cortex)
Conditions: rat cortex P2 fraction, 3H-diazepam 1.5 nM or 3H-flunitrazepam 1.0 nM
Method: Another test utilized for the determination of anxiolytic activity is the measurement of the ability of a test compound to inhibit the binding of tritiated benzodiazepines to brain-specific receptors of mammals. […] After drying at 50°-60° C. for 30 minutes, 10 ml of diluent was added and the radioactivity determined in a scintillation counter. Inhibition of binding was calculated by the difference between total binding and binding in the presence of test compound, divided by the total binding, X 100.
Counter-ions that a name gives are not always drawn.
Quantity kind: % Inhibition (3H-benzodiazepine binding) (%)
Value expressed in %; do not type the unit.

Problem: I have this molecule here, N#Cc1cnn2c1N(C(=O)CN1CCN(CCC3CCCCC3)CC1)CC=C2c1cccc(C(F)(F)F)c1 [Example 86, dihydrochloride] , and I need its recorded % Inhibition (3H-benzodiazepine binding).
Solution: 14

Problem: For the molecule shown here, "Cl.N#Cc1cnn2c1N(C(=O)CN1CCN(c3ccc(Cl)c(Cl)c3)CC1)CC=C2c1cccc(C(F)(F)F)c1" , give the reported % Inhibition (3H-benzodiazepine binding).
Solution: 12

Problem: Consider the molecule "CCCCCCN(CCCCCC)CC(=O)N1CC=C(c2cccc(C(F)(F)F)c2)n2ncc(C#N)c21" and give its measured % Inhibition (3H-benzodiazepine binding).
Solution: 24

Problem: Reported % Inhibition (3H-benzodiazepine binding), molecule "N#Cc1cnn2c1N(C(=O)CN1CCNCC1)CC=C2c1cccc(C(F)(F)F)c1" : ____
Solution: 25
